# Tested on: Murine leukaemia L1210
# experiment-summary: Cytotoxicity for L1210 cells in culture (Microculture Tetrazolium Assay)
# Assay type: cell-based
# measurement-context: Mus musculus, exposure 48 hours (4 periods of cell doubling), viable cells by Microculture Tetrazolium Assay
result-type: IC50

molecule | result-type | value
COc1cc2c(c3c1c(=O)c1ccccc1n3C)C=CC(C)(C)O2 [Acronycine] | IC50 | 27 µM

Turning now to a further molecule:
# IC50 (molecule: COc1cc2c(c3c1c(=O)c1cc4ccccc4cc1n3C)[C@H]1OC(=O)O[C@H]1C(C)(C)O2 (relative stereo) [Example 7] ) is 0.023 µM
